Structures can show the parent of a compound that is named as a salt.
experimentalReadout: melting point

// returns reported melting point for input `Cl.Cl.Clc1ccc(-n2cnc(Cn3ccnc3)c2)cc1Cl` > 250 °C

Looking for the measured melting point of Cc1nccn1Cc1cn(-c2ccc(F)c(C(C)(F)F)c2)cn1.Cl.Cl [Example 149] , can you help? > 200 °C (dec.)

Fill in: melting point of `Cl.Cl.c1ccc(COc2ccc(-n3cnc(Cn4ccnc4)c3)cc2)cc1` is ___ 224 to 225 °C

Endpoint output: melting point of OCc1nccn1Cc1cn(-c2ccc(Cl)c(Cl)c2)cn1 [Example 109] . Value? 202 to 203 °C

Value lookup for melting point; key = `Cc1nccn1Cc1cn(-c2cc(F)cc(Br)c2)cn1.Cl.Cl` > 200 °C (dec.)

Please go through the list and note melting point for each compound.
1. Cl.Cl.c1cn(Cc2cn(-c3ccc4c(c3)CCC4)cn2)cn1
2. CCc1nccn1Cc1cn(-c2ccc(F)c(Cl)c2)cn1.Cl.Cl [Example 94]
3. CCc1nccn1Cc1cn(-c2cccc(SC(F)(F)F)c2)cn1 (as salt: hydrochloride) [Example 143]
4. COc1ccc(-n2cnc(Cn3ccnc3C)c2)cc1C(F)(F)F.Cl.Cl
5. CCc1nccn1Cc1cn(-c2ccc(OCc3ccccc3)cc2)cn1.Cl.Cl
6. Cc1nccn1Cc1cn(-c2ccc(Cl)c(C(F)(F)F)c2)cn1.Cl.Cl
7. Cc1ccc(-n2cnc(Cn3ccnc3)c2)cc1C (as salt: hydrochloride) [Example 21]

["214 to 216 °C", "248 to 250 °C", "234 to 236 °C", "> 222 °C (dec.)", "222 to 223 °C", "> 250 °C", "218 to 219 °C"]

Would you mind giving melting point for every compound in the list below?
1. CC(C)(C)c1cccc(-n2cnc(Cn3ccnc3)c2)c1.Cl.Cl
2. CCc1nccn1Cc1cn(-c2cccc(OC)c2)cn1.Cl.Cl
3. CCc1nccn1Cc1cn(-c2cccc(C(C)(F)F)c2)cn1.Cl.Cl [Example 146]
4. Cc1cc(-n2cnc(Cn3ccnc3)c2)ccc1F.Cl.Cl
5. Cc1nccn1Cc1cn(-c2ccc3c(c2)CCC3)cn1.Cl.Cl [Example 16]
6. Cl.Cl.FC(F)(F)Sc1ccc(-n2cnc(Cn3ccnc3)c2)cc1Cl
7. Cc1nccn1Cc1cn(-c2ccc3ccccc3n2)cn1 (as salt: sodium) [Example 204]
8. Cl.Cl.FC(F)(F)Oc1ccc(-n2cnc(Cn3ccnc3)c2)cc1Cl

1: > 200 °C (dec.); 2: 246 to 248 °C; 3: 130 to 134 °C (dec.); 4: 242 to 243 °C; 5: 242 to 243 °C; 6: 244 to 245 °C; 7: 160 °C; 8: 212 to 213 °C

Look up melting point for the entries below, preserving their order.
1. Cc1nccn1Cc1cn(-c2ccc(OC(F)F)cc2)cn1.Cl.Cl
2. Cc1nccn1Cc1ccn(-c2ccc(Cl)c(Cl)c2)n1.Cl
3. CCc1nccn1Cc1cn(-c2ccc(Cl)cc2F)cn1.Cl.Cl
4. CCc1nccn1Cc1cn(-c2ccc(OC)c(Cl)c2)cn1.Cl.Cl [Example 58]

1: 228 to 229 °C; 2: 204 to 205 °C; 3: 248 to 249 °C; 4: 220 to 221 °C
